# Lookup of reported hERG current change (%, negative = inhibition) at 10uM keyed by entry
# experimental_system: human ether-à-go-go-related gene (hERG) potassium channel (human);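 note: peak tail current of the secondary pulse compared with the same well before compound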
# Sequence (Q12809 whole entry, looked up): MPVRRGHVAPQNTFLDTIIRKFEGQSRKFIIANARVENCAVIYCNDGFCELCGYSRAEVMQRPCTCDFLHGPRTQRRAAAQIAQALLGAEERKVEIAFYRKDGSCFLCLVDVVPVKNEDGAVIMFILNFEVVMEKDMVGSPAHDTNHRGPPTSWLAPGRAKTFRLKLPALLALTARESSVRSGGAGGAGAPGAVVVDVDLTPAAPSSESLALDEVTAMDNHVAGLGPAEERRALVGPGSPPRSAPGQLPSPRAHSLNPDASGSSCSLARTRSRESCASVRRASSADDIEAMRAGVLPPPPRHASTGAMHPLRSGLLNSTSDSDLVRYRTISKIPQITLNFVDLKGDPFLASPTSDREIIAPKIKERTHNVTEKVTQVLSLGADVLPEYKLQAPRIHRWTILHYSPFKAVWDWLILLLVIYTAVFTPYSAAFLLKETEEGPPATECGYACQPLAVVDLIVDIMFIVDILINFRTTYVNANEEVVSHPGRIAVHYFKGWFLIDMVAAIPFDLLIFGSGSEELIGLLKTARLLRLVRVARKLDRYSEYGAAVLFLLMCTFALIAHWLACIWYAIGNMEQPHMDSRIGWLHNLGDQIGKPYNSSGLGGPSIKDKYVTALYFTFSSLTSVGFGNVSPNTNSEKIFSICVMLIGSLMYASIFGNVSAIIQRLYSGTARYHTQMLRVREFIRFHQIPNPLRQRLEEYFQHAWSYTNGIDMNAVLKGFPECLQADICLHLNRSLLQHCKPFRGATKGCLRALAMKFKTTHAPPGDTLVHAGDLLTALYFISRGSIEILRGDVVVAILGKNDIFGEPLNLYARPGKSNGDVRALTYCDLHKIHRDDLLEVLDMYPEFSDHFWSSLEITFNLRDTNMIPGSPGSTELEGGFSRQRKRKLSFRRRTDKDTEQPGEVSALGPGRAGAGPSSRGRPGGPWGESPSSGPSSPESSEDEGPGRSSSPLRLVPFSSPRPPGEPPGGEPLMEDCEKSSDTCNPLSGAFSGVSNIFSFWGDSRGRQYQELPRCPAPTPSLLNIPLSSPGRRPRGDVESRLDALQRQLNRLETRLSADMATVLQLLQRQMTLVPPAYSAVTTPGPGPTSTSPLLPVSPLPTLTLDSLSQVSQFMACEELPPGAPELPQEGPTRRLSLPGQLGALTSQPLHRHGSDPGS
# experiment_notes: primary screen, population patch clamp on CHO cells stably expressing hERG; higher = less effect of the substance
Hit rate of the full screen: of about 310,000 compounds, about 14,000 (4.5%) showed an effect of 50% or more. The effect is printed as a negative number. This excerpt belongs to a sample that is enriched for strong results.
observable: hERG current change (%, negative = inhibition) at 10uM (%)

compound	value_measured
CCOc1cc(/C=N/Nc2cc(C)nc3ccc(C)cc23)ccc1O	11.1
CCOc1ccc(Nc2cc(C)nc3ccc(C)cc23)cc1	-69.6
O=C1NC(Cc2ccccc2)C(=O)N1Cc1cc([N+](=O)[O-])cc2c1OCOC2 (stereo not shown)	7.47
CCOc1ccccc1Nc1ccnc2cc(Cl)ccc12	-57.2
Nc1cc(C(=O)OCC(=O)N2CCOCC2)ccc1Cl	17.8
Cc1ccc2nc(C)cc(Nc3ccc([N+](=O)[O-])cc3)c2c1	-14.4
COc1cc(C2=NOC(C(=O)Nc3ccc(C)cc3)C2)cc(OC)c1OC (stereo not shown)	-4.96
CN(C(=O)CSc1nc(-c2ccccc2)cs1)C1CCS(=O)(=O)C1 (stereo not shown)	-19.6
CCOc1ccccc1/C=N/Nc1cc(C)nc2ccc(C)cc12	8.9
Cc1ccc(Nc2cc(C)nc3ccc(C)cc23)cc1	-37.9
